# assay.remarks: Selectivity index, ratio of EC50 for Epstein-Barr virus P3HR-1 to CC50 for human daudi cell
measured.attribute: Selectivity Index

In: For the molecule "Nc1ccn(CCOCP(=O)(O)O)c(=O)n1" , report Selectivity Index.
Out: <2.4

In: For the molecule "CCCCCCCCCCCCCCCCOCCCOP(=O)(O)COCCn1cnc2c(N)nc(N)nc21" , report Selectivity Index.
Out: >63

In: For the molecule "CCCCCCCCCCCCCCCCOCCCOP(=O)(O)COCCn1ccc(N)nc1=O" , report Selectivity Index.
Out: <2

Next up:
In: For the molecule "Nc1nc(NC2CC2)c2ncn(CCOCP(=O)(O)O)c2n1" , report Selectivity Index.
Out: 200

###

# CC50 at 168 h per entry
# assay.remarks: Cytotoxicity against human HFF cells after 7 days by neutral red dye method
# Format: cell-based

In: For the molecule "CCCCCCCCCCCCCCCCOCCCOP(=O)(O)COCCn1cnc2c(N)nc(N)nc21" , report CC50 at 168 h.
Out: 120 µM

In: For the molecule "CCCCCCCCCCCCCCCCOCCCOP(=O)(O)COCCn1cc(F)c(N)nc1=O" , report CC50 at 168 h.
Out: 35 µM

In: For the molecule "Nc1ccn(CCOCP(=O)(O)O)c(=O)n1" , report CC50 at 168 h.
Out: > 300 µM

***
In: For the molecule "Nc1nc(NC2CC2)c2ncn(CCOCP(=O)(O)O)c2n1" , report CC50 at 168 h.
Out: > 100 µM

In: For the molecule "CCCCCCCCCCCCCCCCOCCCOP(=O)(O)COCCn1cc(Br)c(N)nc1=O" , report CC50 at 168 h.
Out: > 300 µM

In: For the molecule "Nc1nc(=O)n(CCOCP(=O)(O)O)cc1Br" , report CC50 at 168 h.
Out: > 300 µM

In: For the molecule "CCCCCCCCCCCCCCCCOCCCOP(=O)(O)COCCn1ccc(N)nc1=O" , report CC50 at 168 h.
Out: > 300 µM

In: For the molecule "CCCCCCCCCCCCCCCCOCCCOP(=O)(O)COCCn1cnc2c(NC3CC3)nc(N)nc21" , report CC50 at 168 h.
Out: 110 µM

In: For the molecule "Nc1nc(N)c2ncn(CCOCP(=O)(O)O)c2n1" , report CC50 at 168 h.
Out: > 100 µM

###

# assay.remarks: Antiviral activity against Murine cytomegalovirus Smith infected in HFF cells by plaque reduction assay
# Assay type: functional, cell-based, Murine cytomegalovirus (strain Smith)
# condition.context: Murid betaherpesvirus 1, HFF
# EC50 per entry
Output spec: scalar in µM, unitless text.

In: For the compound "Nc1nc(=O)n(CCOCP(=O)(O)O)cc1F" , report EC50.
Out: 78

Next up:
In: For the compound "Nc1nc(N)c2ncn(CCOCP(=O)(O)O)c2n1" , report EC50.
Out: 0.2

###

# assay.remarks: Selectivity index, ratio of EC50 for Murine cytomegalovirus Smith to CC50 for human HFF cell
measured.attribute: Selectivity Index

In: For the compound "Nc1nc(=O)n(CCOCP(=O)(O)O)cc1F" , report Selectivity Index.
Out: 2.8

In: For the compound "Nc1nc(NC2CC2)c2ncn(CCOCP(=O)(O)O)c2n1" , report Selectivity Index.
Out: >1700

In: For the compound "CCCCCCCCCCCCCCCCOCCCOP(=O)(O)COCCn1cc(Br)c(N)nc1=O" , report Selectivity Index.
Out: >230

Next up:
In: For the compound "Nc1nc(=O)n(CCOCP(=O)(O)O)cc1Br" , report Selectivity Index.
Out: <150

###

# Test system: Human alphaherpesvirus 3
# assay.remarks: Antiviral activity against Varicella zoster virus Ellen infected in HFF cells by plaque reduction assay
# Format: functional, organism-based
# condition.context: Human alphaherpesvirus 3, Ellen
# EC50 per entry

In: For the compound "CCCCCCCCCCCCCCCCOCCCOP(=O)(O)COCCn1ccc(N)nc1=O" , report EC50.
Out: > 300000 nM

Next up:
In: For the compound "Nc1nc(N)c2ncn(CCOCP(=O)(O)O)c2n1" , report EC50.
Out: 2900 nM

###

# log10(EC50) per entry
# System: Human alphaherpesvirus 2
# assay.remarks: Antiviral activity against herpes simplex virus 2 MS infected in HFF cells by plaque reduction assay
# Assay type: functional, organism-based
# condition.context: Human alphaherpesvirus 2, MS
Kindly note that the scale is log10 and the underlying EC50 is in µM.

Consider the worked cases shown below.
In: For the compound "CCCCCCCCCCCCCCCCOCCCOP(=O)(O)COCCn1cnc2c(N)nc(N)nc21" , report log10(EC50).
Out: -0.40

In: For the compound "Nc1nc(NC2CC2)c2ncn(CCOCP(=O)(O)O)c2n1" , report log10(EC50).
Out: 0.90

In: For the compound "CCCCCCCCCCCCCCCCOCCCOP(=O)(O)COCCn1cc(Br)c(N)nc1=O" , report log10(EC50).
Out: 1.26

In: For the compound "CCCCCCCCCCCCCCCCOCCCOP(=O)(O)COCCn1ccc(N)nc1=O" , report log10(EC50).
Out: 1.54

Next up:
In: For the compound "CCCCCCCCCCCCCCCCOCCCOP(=O)(O)COCCn1cnc2c(NC3CC3)nc(N)nc21" , report log10(EC50).
Out: -0.70

###

# assay.remarks: Cytotoxicity against human HFF cells
# Assay type: cell-based
measured.attribute: CC50

Consider the worked cases shown below.
In: For the molecule "Nc1nc(NC2CC2)c2ncn(CCOCP(=O)(O)O)c2n1" , report CC50.
Out: 150 µM

In: For the molecule "CCCCCCCCCCCCCCCCOCCCOP(=O)(O)COCCn1cnc2c(N)nc(N)nc21" , report CC50.
Out: 170 µM

In: For the molecule "Nc1nc(=O)n(CCOCP(=O)(O)O)cc1F" , report CC50.
Out: 220 µM

***
In: For the molecule "CCCCCCCCCCCCCCCCOCCCOP(=O)(O)COCCn1cc(F)c(N)nc1=O" , report CC50.
Out: 33 µM

###

# Test system: Human alphaherpesvirus 3
# assay.remarks: Antiviral activity against Varicella zoster virus Ellen infected in HFF cells by plaque reduction assay
# Type: functional, organism-based
# condition.context: Human alphaherpesvirus 3, Ellen
measured.attribute: pEC50
Quick note: pEC50 values are minus log10 of concentrations in mol/L.

In: For the compound "CCCCCCCCCCCCCCCCOCCCOP(=O)(O)COCCn1cc(F)c(N)nc1=O" , report pEC50.
Out: 5.59

***
In: For the compound "Nc1nc(=O)n(CCOCP(=O)(O)O)cc1Br" , report pEC50.
Out: 4.42

In: For the compound "CCCCCCCCCCCCCCCCOCCCOP(=O)(O)COCCn1cnc2c(N)nc(N)nc21" , report pEC50.
Out: 6.52

###

# assay.remarks: Antiviral activity against Human herpesvirus 6A GS infected in human HSB-2 cells
# Type: functional, cell-based
# condition.context: Human betaherpesvirus 6A, HSB2
measured.attribute: pEC50
Quick note: pEC50 values are minus log10 of concentrations in mol/L.

Consider the worked cases shown below.
In: For the compound "CCCCCCCCCCCCCCCCOCCCOP(=O)(O)COCCn1cnc2c(NC3CC3)nc(N)nc21" , report pEC50.
Out: 7.30

In: For the compound "Nc1nc(N)c2ncn(CCOCP(=O)(O)O)c2n1" , report pEC50.
Out: 4.82

In: For the compound "Nc1nc(NC2CC2)c2ncn(CCOCP(=O)(O)O)c2n1" , report pEC50.
Out: 6.00

In: For the compound "CCCCCCCCCCCCCCCCOCCCOP(=O)(O)COCCn1cc(F)c(N)nc1=O" , report pEC50.
Out: 5.14

In: For the compound "CCCCCCCCCCCCCCCCOCCCOP(=O)(O)COCCn1cc(Br)c(N)nc1=O" , report pEC50.
Out: 4.42

Next up:
In: For the compound "CCCCCCCCCCCCCCCCOCCCOP(=O)(O)COCCn1cnc2c(N)nc(N)nc21" , report pEC50.
Out: 5.70

###

# System: Human betaherpesvirus 5
# assay.remarks: Antiviral activity against Human cytomegalovirus AD169 infected in HFF cells by plaque reduction assay
# Assay type: functional, organism-based
# condition.context: Human betaherpesvirus 5, AD169, HFF
# EC50 per entry
Output spec: scalar in µM, unitless text.

In: For the compound "CCCCCCCCCCCCCCCCOCCCOP(=O)(O)COCCn1cnc2c(NC3CC3)nc(N)nc21" , report EC50.
Out: 0.02

***
In: For the compound "Nc1nc(NC2CC2)c2ncn(CCOCP(=O)(O)O)c2n1" , report EC50.
Out: 0.4

In: For the compound "CCCCCCCCCCCCCCCCOCCCOP(=O)(O)COCCn1cc(Br)c(N)nc1=O" , report EC50.
Out: 4.8

In: For the compound "CCCCCCCCCCCCCCCCOCCCOP(=O)(O)COCCn1cnc2c(N)nc(N)nc21" , report EC50.
Out: 0.5

In: For the compound "Nc1nc(N)c2ncn(CCOCP(=O)(O)O)c2n1" , report EC50.
Out: 13

In: For the compound "CCCCCCCCCCCCCCCCOCCCOP(=O)(O)COCCn1cc(F)c(N)nc1=O" , report EC50.
Out: 2
